System: human LDL receptor promoter
Assay: in vitro Luciferase Activity Test (LDL receptor promoter-luciferase reporter in recombinant CHO cells)
Format: cell-based
Details: Homo sapiens, CHO, maximum activity (%) over control; 15% luciferase activity cutoff point (footnote 2); read-out: MA%
outcome measure: Emax

Below: 4 compounds and their reported Emax.
compound="CC(C)CCC[C@@H](C)[C@H]1CC[C@H]2[C@@H]3CCC4[C@H](Cc5ccc(OC(F)(F)F)cc5)[C@H](O)CC[C@]4(C)[C@H]3CC[C@]12C (some centres unmarked)" outcome_measure=Emax result=76%
compound="C[C@H](CCCN(C)C)[C@H]1CC[C@H]2[C@@H]3CC[C@@H]4C[C@H](O)CC[C@]4(C)[C@H]3CC[C@]12C [Example 51, 3a-hydroxy-25-azacoprostane]" outcome_measure=Emax result=173%
compound="C=CC[C@@H]1[C@H](O)CC[C@@]2(C)[C@H]1CC[C@@H]1[C@@H]2CC[C@]2(C)[C@@H]([C@H](C)CCCC(C)C)CC[C@@H]12 [Example 5, [4a,5a]-4-(2-propenyl)cholestan-3a-ol]" outcome_measure=Emax result=121%
compound="CC(C)CCC[C@@H](C)[C@H]1CC[C@H]2[C@@H]3CCC4[C@H](Cc5ccc(C(=O)O)cc5)[C@H](O)CC[C@]4(C)[C@H]3CC[C@]12C (some centres unmarked)" outcome_measure=Emax result=38%

Then there is this compound:
Consider C=CC[C@@H]1C(=O)/C(=C/O)C[C@]2(C)[C@H]3CC[C@]4(C)[C@@H]([C@H](C)CCCC(C)C)CC[C@H]4[C@@H]3CC[C@@H]12 . Its measured Emax is 27%

* * *

Tested on: human LDL receptor promoter
Experiment: in vitro Luciferase Activity Test (LDL receptor promoter-luciferase reporter in recombinant CHO cells)
Type: cell-based
Settings: relative effective dose compared to compound of Example 4; below one = more active; 15% luciferase activity cutoff point (footnote 2)
Reported RED values are given for each entry in this list.
Lab note: record the figure alone, no unit after it.

molecule="CC(C)CCC[C@@H](C)[C@H]1CC[C@H]2[C@@H]3CCC4[C@H](Cc5ccc(OC(F)(F)F)cc5)[C@H](O)CC[C@]4(C)[C@H]3CC[C@]12C (some centres unmarked) [Example 30]" quantitative_readout=3.2
molecule="C[C@H](CCCN(C)C)[C@H]1CC[C@H]2[C@@H]3CC[C@@H]4C[C@H](O)CC[C@]4(C)[C@H]3CC[C@]12C [Example 51, 3a-hydroxy-25-azacoprostane]" quantitative_readout=1.16
molecule="CC(C)CCC[C@@H](C)[C@H]1CC[C@H]2[C@@H]3CCC4[C@H](Cc5ccc(CO)cc5)[C@H](O)CC[C@]4(C)[C@H]3CC[C@]12C (some centres unmarked) [Example 33]" quantitative_readout=4.3
molecule="CC(C)CCC[C@@H](C)[C@H]1CC[C@H]2[C@@H]3CCC4[C@H](Cc5ccc(Cl)cc5)[C@H](O)CC[C@]4(C)[C@H]3CC[C@]12C (some centres unmarked) [Example 31, 4a-(4-chlorobenzyl)cholestan-3a-ol]" quantitative_readout=4.3

Short answer for COC(=O)c1ccc(C[C@H]2C3CC[C@H]4[C@@H]5CC[C@H]([C@H](C)CCCC(C)C)[C@@]5(C)CC[C@@H]4[C@@]3(C)CC[C@H]2O)cc1 (some centres unmarked) [Example 29] : RED was 2.5

* * *

Recorded RED values for a group of compounds are listed next.
System: human LDL receptor promoter
Test: in vitro Luciferase Activity Test (LDL receptor promoter-luciferase reporter in recombinant CHO cells)
Assay type: cell-based
Settings: relative effective dose compared to compound of Example 4; below one = more active; 30% luciferase activity cutoff point (footnote 1)
Form: value (number only, do not type unit).

Examples with their reported RED follow.
entry_smiles=CC(C)CCC[C@@H](C)[C@H]1CC[C@H]2[C@@H]3CC[C@H]4C[C@H](O)[C@H](Cc5ccc(F)cc5)C[C@]4(C)[C@H]3CC[C@]12C outcome_measure=RED quantitative_readout=5.4
entry_smiles=C/C=C/C[C@@H]1[C@H](N)CC[C@@]2(C)[C@H]1CC[C@@H]1[C@@H]2CC[C@]2(C)[C@@H]([C@H](C)CCCC(C)C)CC[C@@H]12 outcome_measure=RED quantitative_readout=2.50
entry_smiles=CCC[C@@H]1[C@H](O)CC[C@@]2(C)[C@H]1CC[C@@H]1[C@@H]2CC[C@]2(C)[C@@H]([C@H](C)CCCC(C)C)CC[C@@H]12 outcome_measure=RED quantitative_readout=8.3
entry_smiles=C=C(Cl)C[C@@H]1[C@H](O)CC[C@@]2(C)[C@H]1CC[C@@H]1[C@@H]2CC[C@]2(C)[C@@H]([C@H](C)CCCC(C)C)CC[C@@H]12 outcome_measure=RED quantitative_readout=0.24
entry_smiles=C=CC[C@@H]1C[C@@]2(C)[C@@H](CC[C@@H]3[C@@H]2CC[C@]2(C)[C@@H]([C@H](C)CCCC(C)C)CC[C@@H]32)C[C@@H]1O outcome_measure=RED quantitative_readout=4.6

Then this compound:
Lookup result for CC(C)CCC[C@@H](C)[C@H]1CC[C@H]2[C@@H]3CC[C@H]4[C@H](CC=C(F)F)[C@H](O)CC[C@]4(C)[C@H]3CC[C@]12C ; measured RED: 0.36
